Record form. Attribute: GI50. Fill in for each entry.
Test system: LOX IMVI
experimental_details: NCI tumour cell line growth inhibition, 48 h
The source made the active and inactive calls. Cut-off read from the data, not from the text of the source: active = GI50 up to about 1.1 µM and inactive = higher.

molecule	GI50
NCCCCCS(=O)(=O)O	> 100 µM (inactive)
C[Si](C)(C)/C=C/CCC(C=O)(CCCl)c1ccccc1 (stereo unspecified)	19.1 µM (inactive)
Cc1ccc(NCC(=O)N2CC(=O)Nc3ccccc32)cc1	> 100 µM (inactive)
CC(=O)NC(=O)/N=C1\NCCC(=O)N1CCc1c[nH]c2ccccc12	> 100 µM (inactive)
CCOC(=O)CC[C@H](N)C(=O)N[C@H](Cc1ccc(N(CCCl)CCCl)cc1)C(=O)OCC	4.61 µM (inactive)

Turning to the following molecule.
Prompt: Query for LOX IMVI: what GI50 does the record show for O=S1(=O)CCN(Cc2ccccc2)/C1=N\S(=O)(=O)c1ccc(Cl)cc1 ?
Response: 18.1 µM (inactive)
